Assay: Antioxidant assay: DPPH radical-scavenging activity
Settings: read-out: Antioxidant activity IC50 (DPPH); DPPH method
pIC50: −log10 of the molar value.
Readout type: pIC50

Known pIC50 results, listed for orientation:
Query: Give pIC50 for C[C@@H]1O[C@@H](O[C@H]2[C@H](Oc3c(-c4ccc(O)cc4)oc4cc(O)cc(O)c4c3=O)O[C@H](CO[C@@H]3O[C@H](CO)[C@@H](O)[C@H](O)[C@H]3O)[C@@H](O)[C@@H]2O)[C@H](O)[C@H](O)[C@H]1O
Result: 3.77

Query: Give pIC50 for C[C@@H]1O[C@@H](OC[C@H]2O[C@@H](Oc3c(-c4ccc(O)cc4)oc4cc(O)cc(O)c4c3=O)[C@H](O[C@@H]3O[C@H](CO)[C@@H](O)[C@H](O)[C@H]3O)[C@@H](O)[C@@H]2O)[C@H](O)[C@H](O)[C@H]1O
Result: 3.59

Query: Give pIC50 for C[C@@H]1O[C@@H](OC[C@H]2O[C@@H](O[C@H]3[C@H](Oc4c(-c5ccc(O)cc5)oc5cc(O)cc(O)c5c4=O)O[C@H](CO)[C@@H](O)[C@@H]3O)[C@H](O)[C@@H](O)[C@@H]2O)[C@H](O)[C@H](O)[C@H]1O
Result: 3.68

Query: Give pIC50 for O=C1O[C@H]([C@@H](O)CO)C(O)=C1O [V c, L-ascorbic acid, reference compound]
Result: 4.47

Query: Give pIC50 for O=c1c(O[C@@H]2O[C@H](CO)[C@@H](O)[C@H](O)[C@H]2O)c(-c2ccc(O)cc2)oc2cc(O[C@@H]3O[C@H](CO)[C@@H](O)[C@H](O)[C@H]3O)cc(O)c12 [Compound 8, kaempferol-3,7-di-O-β-D-glucopyranoside]
Result: 3.39

I = O=c1c(O)c(-c2ccc(O)cc2)oc2cc(O)cc(O)c12
II = O=c1c(O[C@@H]2O[C@H](CO)[C@@H](O)[C@H](O)[C@H]2O)c(-c2ccc(O)cc2)oc2cc(O)cc(O)c12
Query: Exercise: compare I and II ; which one has the greater pIC50? The response must carry the label of the picked entry.
Result: I
(I: 4.44, II: 4.00)
